# key: entry, value: pIC50
tested on: HDAC (HeLa nuclear extract); assay: HDAC fluorimetric assay (inhibition of HDAC enzymatic activity); type: biochemical; settings: HDAC fluorimetric assay kit
pIC50: −log10 of the molar value.

Using the record for COc1ccc(-c2c(C(=O)NCCCC(=O)NO)noc2-c2cc(Cl)c(O)cc2O)cc1 , state its measured pIC50.
5.00 to 6.00

Output measured pIC50 for this item: CCNC(=O)c1noc(-c2cc(C(C)C)c(O)cc2O)c1-c1ccc(CN(C)CCCCCCC(=O)NO)cc1
6.00 to 7.00

###

target: UniProt P07900
As shown below, each of these compounds has a reported IC50 value.

# STRUCTURE_AS_SMILES, IC50
measured = [
    ("COc1ccc(-c2c(C(=O)NCCC(=O)NO)noc2-c2cc(Cl)c(O)cc2O)cc1", "≤ 100 nM"),
    ("COc1ccc(-c2c(C(=O)N3CCN(c4ncc(C(=O)NO)cn4)CC3)noc2-c2cc(Cl)c(O)cc2O)cc1", "100 to 1000 nM"),
    ("CC(C)c1cc(-c2onc(C(=O)NCCCC(=O)NO)c2-c2ccc(CN3CCOCC3)cc2)c(O)cc1O", "≤ 100 nM"),
    ("CC(C)c1cc(-c2onc(C(=O)NCCCCCC(=O)NO)c2-c2ccc(CN3CCOCC3)cc2)c(O)cc1O", "≤ 100 nM"),
    ("CCNC(=O)c1noc(-c2cc(C(C)C)c(O)cc2O)c1-c1ccc(CNCCC(=O)NO)cc1", "≤ 100 nM"),
]

Then this compound:
Name the value of IC50 reported for COc1ccc(-c2c(C(=O)NCCCCCC(=O)NO)noc2-c2cc(Cl)c(O)cc2O)cc1 when tested on UniProt P07900.
≤ 100 nM
